Measured inhibition, listed per entry.
# system tested: Low molecular weight protein-tyrosine phosphatase A (Mycobacterium tuberculosis)
# Sequence (whole entry): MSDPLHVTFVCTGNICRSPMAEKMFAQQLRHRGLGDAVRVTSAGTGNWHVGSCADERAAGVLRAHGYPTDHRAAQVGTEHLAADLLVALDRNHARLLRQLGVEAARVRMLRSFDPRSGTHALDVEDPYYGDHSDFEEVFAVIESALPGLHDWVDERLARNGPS
# experimental details: Inhibition of recombinant Mycobacterium tuberculosis PtpA at 25 uM using p-nitrophenyl phosphate as substrate preincubated for 10 mins followed by substrate addition and measured every minute for 10 mins by UV-VIS spectrophotometric analysis

- smiles representation: "COc1ccc(NC(=S)N/N=C/c2ccc(C)cc2)cc1"
  inhibition / %: 0
- smiles representation: "COc1ccc(NC(=S)N/N=C/c2cc(OC)ccc2OC)cc1"
  inhibition / %: 0
- smiles representation: "COc1cc(/C=N/NC(=S)Nc2cccc3ccccc23)ccc1O"
  inhibition / %: 0
- smiles representation: "COc1ccc(NC(=S)N/N=C/c2cc(OC)c(OC)c(OC)c2)cc1"
  inhibition / %: 0
- smiles representation: "S=C(N/N=C/c1ccc(Cl)cc1)Nc1cccc2ccccc12"
  inhibition / %: 0
- smiles representation: "COc1ccc(NC(=S)N/N=C/c2ccc(-c3ccccc3)cc2)cc1"
  inhibition / %: 41.2
- smiles representation: "Cc1ccc(NC(=S)N/N=C/c2ccc(Cl)cc2)cc1"
  inhibition / %: 4.9
- smiles representation: "Cc1ccc(NC(=S)N/N=C/c2ccccc2[N+](=O)[O-])cc1"
  inhibition / %: 21.6
- smiles representation: "COc1ccc(NC(=S)N/N=C/c2ccccc2)cc1"
  inhibition / %: 0
- smiles representation: "Cc1ccc(NC(=S)N/N=C/c2ccccc2)cc1"
  inhibition / %: 16.6
- smiles representation: "S=C(N/N=C/c1ccccc1)Nc1cccc2ccccc12"
  inhibition / %: 58.1
- smiles representation: "Cc1ccc(NC(=S)N/N=C/c2ccc3ccccc3c2)cc1"
  inhibition / %: 29.3
- smiles representation: "Cc1ccc(/C=N/NC(=S)Nc2ccc(C)cc2)cc1"
  inhibition / %: 0.7
- smiles representation: "S=C(N/N=C/c1ccc(-c2ccccc2)cc1)Nc1cccc2ccccc12"
  inhibition / %: 79.7
- smiles representation: "CN(C)c1ccc(/C=N/NC(=S)Nc2cccc3ccccc23)cc1"
  inhibition / %: 51.6
- smiles representation: "COc1ccc(/C=N/NC(=S)Nc2cccc3ccccc23)cc1OC"
  inhibition / %: 64.5
- smiles representation: "COc1ccc(NC(=S)N/N=C/c2cccc3ccccc23)cc1"
  inhibition / %: 22.7
- smiles representation: "COc1ccc(NC(=S)N/N=C/c2ccc([N+](=O)[O-])cc2)cc1"
  inhibition / %: 64.4
- smiles representation: "COc1ccc(NC(=S)N/N=C/c2ccc(Cl)cc2)cc1"
  inhibition / %: 1
- smiles representation: "COc1ccc(/C=N/NC(=S)Nc2ccc(C)cc2)cc1"
  inhibition / %: 8.9
- smiles representation: "S=C(N/N=C/c1cccc2ccccc12)Nc1cccc2ccccc12"
  inhibition / %: 10.3
- smiles representation: "Cc1ccc(NC(=S)N/N=C/c2ccc(-c3ccccc3)cc2)cc1"
  inhibition / %: 26.3
- smiles representation: "Cc1ccc(NC(=S)N/N=C/c2ccc(Cl)c(Cl)c2)cc1"
  inhibition / %: 23.4
- smiles representation: "COc1ccc(NC(=S)N/N=C/c2ccc(OC)c(OC)c2)cc1"
  inhibition / %: 0

Provenance of the data: ChEMBL document CHEMBL4261631
